Data provenance is ChEMBL document CHEMBL1201862.

Recorded measurements of GI50, one per entry
Test system: UACC-62
assay procedure: NCI tumour cell line growth inhibition, 48 h
The source made the active and inactive calls. No stated cut-off is given here; in the data, active = GI50 up to about 1.1 µM and inactive = higher.

[[record]]
molecule = "CS(=O)(=O)OCCCNCCCOS(C)(=O)=O"
property = "GI50"
experimental_value = "393 µM (inactive)"


# return recorded GI50 for entry "O=C(CCOS(=O)(=O)CF)N1CCN(C(=O)CCOS(=O)(=O)CF)CC1"
16.4 µM (inactive)

* * *

System: SF-268
assay procedure: NCI tumour cell line growth inhibition, 48 h
Active and inactive are the calls of the source. Cut-off read from the data, not from the text of the source: active = GI50 up to about 1.1 µM and inactive = higher.
property: GI50

Check out these entries, answers already filled in.
[[record]]
molecule = "C/C=C/C[C@@H](C)C(=O)C1C(=O)N[C@@H](C(C)C)C(=O)N(C)CC(=O)N(C)[C@@H](CC(C)C)C(=O)N[C@@H](C(C)C)C(=O)N(C)[C@@H](CC(C)C)C(=O)N[C@@H](C)C(=O)N[C@@H](C)C(=O)N(C)[C@@H](CC(C)C)C(=O)N(C)[C@@H](CC(C)C)C(=O)N(C)[C@@H](C(C)C)C(=O)N1C (stereo partly drawn)"
property = "GI50"
experimental_value = "7.89 µM (inactive)"

[[record]]
molecule = "CC(=O)OC1C(O)COC(O[C@H]2CC[C@]34C[C@]35CC[C@]3(C)C([C@@]6(C)CC[C@@H](C(C)(C)O)O6)[C@@H](O)C[C@@]3(C)C5C[C@H](OC3OCC(O)C(O)C3O)[C@H]4C2(C)C)C1OC1OCC(O)C(O)C1O (stereo partly drawn)"
property = "GI50"
experimental_value = "> 100 µM (inactive)"

[[record]]
molecule = "N#C/C(=C\\c1cccc(O)c1)C(N)=O"
property = "GI50"
experimental_value = "> 100 µM (inactive)"

[[record]]
molecule = "O=C(Nc1ccc(S(=O)(=O)Nc2ncccn2)cc1)c1c2ccccc2nc2ccccc12"
property = "GI50"
experimental_value = "> 100 µM (inactive)"

[[record]]
molecule = "NC(=O)NC(=O)C1CCCCC1C(=O)O (stereo not drawn)"
property = "GI50"
experimental_value = "> 100 µM (inactive)"


Now, please, on to the next molecule.
# return recorded GI50 for entry "O=C1Cc2c([nH]c3cc(Br)ccc23)-c2ccccc2N1"
25.2 µM (inactive)

* * *

Tested on: SK-MEL-5
assay procedure: NCI tumour cell line growth inhibition, 48 h
Calls of active or inactive are those of the source. Cut-off read from the data, not from the text of the source: active = GI50 up to about 1.1 µM and inactive = higher.
Please reply with one of these outcomes: True for active, False for inactive

Would you please look over these solved cases?
[[record]]
compound = "COC(=O)/C=C/c1ccc2c(c1)CC1(Cc3ccccc3C1)C2"
assigned_class = "False"

[[record]]
compound = "Cc1ccc(C(=O)C2C=C(c3ccc(C)cc3)SC3C=CCC32)cc1 (stereo unspecified)"
assigned_class = "False"

[[record]]
compound = "CCCCCCCCCCCCCCCCOCC(Cl)COP(=O)(O)OP(=O)(O)OCC1OC(n2cnc3c(N)ncnc32)C(O)C1O (stereo unspecified)"
assigned_class = "False"

[[record]]
compound = "COc1ccc(C(c2ccc(C(C)C)cc(=O)c2O)c2ccc3cccnc3c2O)cc1 (stereo unspecified)"
assigned_class = "True"

[[record]]
compound = "O=C(Nc1ccc(S(=O)(=O)Nc2ncccn2)cc1)c1c2ccccc2nc2ccccc12"
assigned_class = "False"

[[record]]
compound = "CCCCCCCCCCCCCCCCCCNc1ccn(C2OC(COP(=O)(O)OCC3OC(n4ccc(N)nc4=O)C(O)C3O)C(O)C2O)c(=O)n1 (stereo unspecified)"
assigned_class = "False"

[[record]]
compound = "CCOC(=O)C1S/C(=N\\c2ccc(Cl)cc2Cl)N=C1C (stereo unspecified)"
assigned_class = "False"

[[record]]
compound = "CC(=O)OC1COC(N2CCc3ccccc32)C(OC(C)=O)C1OC(C)=O (stereo unspecified)"
assigned_class = "False"


// switching to the query compound
For this compound, state the assay outcome: O=C1CC2(CCC(O)(c3cccc4ccccc34)C(C(=O)c3cccc4ccccc34)C2)C(=O)c2ccccc2N1 (stereo unspecified)
False
